Where these numbers come from: ChEMBL document CHEMBL5252580

pKa: recorded values
Experiment: Ionization constant, pKa of the compound in water in presence of 40 to 42.6% acetonitrile cosolvent by potentiometric titration method
Type: physicochemical
Details: water with 40 to 42.6% acetonitrile cosolvent

# MOLECULE, pKa
data = [
    ("Nc1cccc(O)c1", 4.01),
    ("CCn1cc(C(=O)O)c(=O)c2ccc(C)nc21", 7.56),
    ("Cc1cccc(C)c1NC(=O)C1CCCCN1C (stereo not drawn) [MEPIVACAINE]", 7.74),
]

====

Experiment: Basic ionization constant, pKa of the compound in water by potentiometric titration method
Format: physicochemical
READOUT_TYPE: pKa

# COMPOUND, VALUE_MEASURED
data = [
    ("Nc1cccc(O)c1 [3-AMINOPHENOL]", 4.36),
]
